// data source = ChEMBL document CHEMBL5036340

- assay_comment: Cmax in C57BL/6 mouse liver at 10 mg/kg, po administered as single dose measured at 1.75 hrs by UPLC analysis
- Assay type: ADME, organism-based
- Design: route oral, time 1.75 hrs, dose 10 mg/kg
measurement_kind: Cmax
Number first, unit second.

// returns reported Cmax for input O=c1ccc2c([nH]1)CCC(NCCCNc1c3c(nc4cc(Cl)ccc14)CCCC3)C2 (stereo unspecified)
148 ng/mL

====

- assay_comment: Cmax in C57BL/6 mouse kidney at 10 mg/kg, po administered as single dose measured at 2.50 hrs by UPLC analysis
- Format: ADME, organism-based
- Parameters: route oral, time 2.5 hrs, dose 10 mg/kg
measurement_kind: Cmax (ng/mL)
State the answer as a number, implicitly in ng/mL.

Reported Cmax for O=c1ccc2c([nH]1)CCC(NCCCNc1c3c(nc4cc(Cl)ccc14)CCCC3)C2 (stereo unspecified) : what is it?
165
